Values from PubChem BioAssay AID588381

- system name: GTPase HRas (Homo sapiens) (UniProt P01112)
- Sequence (P01112 whole entry, looked up): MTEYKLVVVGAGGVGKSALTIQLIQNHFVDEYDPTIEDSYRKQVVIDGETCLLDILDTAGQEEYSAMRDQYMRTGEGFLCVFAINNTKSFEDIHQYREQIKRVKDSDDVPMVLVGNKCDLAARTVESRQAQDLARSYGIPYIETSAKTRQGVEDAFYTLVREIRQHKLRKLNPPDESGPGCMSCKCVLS
- test description: activated H-Ras mutant GTP-binding inhibitors, SAR follow-up, selectivity assay for Cdc42 probe extension project, biochemical, multiplex bead flow cytometry, round 1 (AID 588381)
- cond: GST-H-Ras act beads, Bodipy-FL-GTP binding
pEC50: −log10 of the molar value.
observation type: pEC50

- structure as smiles: "CC1(C)Cc2c(sc(NC(=S)NC(=O)c3ccccc3)c2C(=O)O)CO1"
  observation type: "pEC50"
  meas value: 7.09
